- test-system: T1, whirlin-NTR-PDZ1-Hp1 (aa residues 2-265) (mouse, UniProt Q80VW5-1 2-265)
- T1 construct: extra 7 aa at the N-terminus of all recombinant proteins of the study; whirlin (long isoform, L-whirlin), residues 2-265: NTR (with HHD1), PDZ1 and hairpin Hp1; The methods call the 2-265 construct whirlin-NTR-PDZ1; also called NTR-PDZ1-Hp1 whirlin fragment; Nter-PDZ1-Hp1; source: E. coli BL21 (DE3) codonPlus-RIPL, purified (Glutathione Sepharose 4B, GST removed by TEV proteinase, SEC)
- T1 sequence: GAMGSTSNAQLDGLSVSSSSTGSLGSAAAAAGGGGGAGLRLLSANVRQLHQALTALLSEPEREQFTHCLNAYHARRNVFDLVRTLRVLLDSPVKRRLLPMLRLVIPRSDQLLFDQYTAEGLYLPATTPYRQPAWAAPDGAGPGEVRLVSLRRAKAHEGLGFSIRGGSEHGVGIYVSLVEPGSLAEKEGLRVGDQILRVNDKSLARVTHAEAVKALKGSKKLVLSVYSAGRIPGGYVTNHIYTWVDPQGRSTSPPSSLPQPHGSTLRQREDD
- assay-info: SPR; ProteOn XPR 36; N-terminally biotinylated peptides captured on a Neutravidin NLC sensor chip, whirlin fragments flowed as analytes at 20 μL/min for 2 min; 250 mM NaCl, 50 mM Tris pH 7.5, 0.5 mM TCEP; steady-state fit Req = (Rmax*C)/(Kd+C); mean of three experiments; Figure 4B shows the responses at 10 μM
- experimental-context: both partners purified
pKd: −log10 of the molar value. No end group written: not given here. *: point of attachment. Biotin = O=C1N[C@H]2[C@H](CS[C@H]2CCCCC(=O)*)N1; TTDS = trioxatridecan-succinamic acid spacer
Here, each record is paired with measured pKd data.

{"binder": "{Biotin-TTDS}-VIMESPLEITEL (C-terminal residues of cadherin-23, including the PBM; source: synthetic peptide (Eurogentec); not shown: biotin, N-terminal, kept) [CDH23 C-terminal peptide (biotin-TTDS-VIMESPLEITEL)]", "pKd": 4.95}
{"binder": "{Biotin-TTDS}-GIDVQPHSQSTSL (C-terminal 13 aa of protocadherin-15 isoform CD1, including the PBM; source: synthetic peptide (Eurogentec); not shown: biotin, N-terminal, kept) [PCDH15-CD1 C-terminal peptide (biotin-TTDS-GIDVQPHSQSTSL)]", "pKd": 5.06}
{"binder": "{Biotin-TTDS}-MGPWNSLHIPMTKL (C-terminal 14 aa of protocadherin-15 isoform CD3, including the PBM; source: synthetic peptide (Eurogentec); not shown: biotin, N-terminal, kept) [PCDH15-CD3 C-terminal peptide (biotin-TTDS-MGPWNSLHIPMTKL)]", "pKd": 5.38}
{"binder": "{Biotin-TTDS}-GANSEQYNTAL (C-terminal 11 aa of protocadherin-15 isoform CD2, including the PBM; source: synthetic peptide (Eurogentec); not shown: biotin, N-terminal, kept) [PCDH15-CD2 C-terminal peptide (biotin-TTDS-GANSEQYNTAL)]", "pKd": 5.07}
